target: Gal-3 (Homo sapiens, UniProt P17931); test: competitive ELISA, inhibition of galectin binding to immobilized asialofetuin
Sequence (P17931 whole entry): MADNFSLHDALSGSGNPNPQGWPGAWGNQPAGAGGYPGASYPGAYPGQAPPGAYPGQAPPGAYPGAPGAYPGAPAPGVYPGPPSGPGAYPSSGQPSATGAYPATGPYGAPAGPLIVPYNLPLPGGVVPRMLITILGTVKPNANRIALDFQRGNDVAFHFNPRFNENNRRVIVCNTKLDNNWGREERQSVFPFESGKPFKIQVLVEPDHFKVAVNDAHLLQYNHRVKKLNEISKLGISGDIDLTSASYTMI
METRIC: IC50 (µM)
Just the number in µM, nothing appended.

compound="CC(=O)N[C@H]1[C@H](O[C@H]2[C@@H](O)[C@@H](CO)O[C@@H](O[C@H]3[C@H](O)[C@@H](O)[C@H](NC(=S)NCCNC(=O)OC(C)(C)C)O[C@@H]3CO)[C@@H]2O)O[C@H](CO)[C@@H](O[C@@H]2O[C@H](CO)[C@H](O)[C@H](O)[C@H]2NC(C)=O)[C@@H]1O [Compound 5]" units_of_measure=µM meas_value=2.2
compound="CC(C)(C)OC(=O)NCCNC(=S)N[C@@H]1O[C@H](CO)[C@@H](O[C@@H]2O[C@H](CO)[C@H](O)[C@H](O)[C@H]2O)[C@H](O)[C@H]1O [Compound 1]" units_of_measure=µM meas_value=136
compound="CC(=O)N[C@H]1[C@H](O[C@H]2[C@@H](O)[C@@H](CO)O[C@@H](O[C@H]3[C@H](O)[C@@H](O)[C@H](NC(=S)NCCNC(=O)OC(C)(C)C)O[C@@H]3CO)[C@@H]2O)O[C@H](CO)[C@@H](O)[C@@H]1O[C@@H]1O[C@H](CO)[C@H](O)[C@H](O)[C@H]1O [Compound 3]" units_of_measure=µM meas_value=15.2

For the next question, use this compound.
Requested read-out IC50, target or system Gal-3 (Homo sapiens, UniProt P17931), entry CC(=O)N[C@@H]1[C@@H](O)[C@H](O[C@@H]2O[C@H](CO)[C@H](O)[C@H](O[C@@H]3O[C@H](CO)[C@@H](O[C@@H]4O[C@H](CO)[C@H](O)[C@H](O)[C@H]4NC(C)=O)[C@H](O)[C@H]3NC(C)=O)[C@H]2O)[C@@H](CO)O[C@H]1NC(=S)NCCNC(=O)OC(C)(C)C [Compound 11]
2.7

###

biological target: Gal-1 (Homo sapiens, UniProt P09382, C3S); assay: competitive ELISA, inhibition of galectin binding to immobilized asialofetuin
Sequence (P09382 whole entry C3S): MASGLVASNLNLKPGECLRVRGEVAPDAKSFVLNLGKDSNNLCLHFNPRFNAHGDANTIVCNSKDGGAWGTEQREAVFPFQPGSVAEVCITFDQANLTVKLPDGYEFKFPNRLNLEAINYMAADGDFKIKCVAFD
pIC50: −log10 of the molar value.
METRIC: pIC50

smiles_record=CC(=O)N[C@H]1[C@H](O[C@H]2[C@@H](O)[C@@H](CO)O[C@@H](O[C@H]3[C@H](O)[C@@H](O)[C@H](NC(=S)NCCNC(=O)OC(C)(C)C)O[C@@H]3CO)[C@@H]2O)O[C@H](CO)[C@@H](O[C@@H]2O[C@H](CO)[C@H](O)[C@H](O)[C@H]2O)[C@@H]1O metric=pIC50 meas_value=3.36
smiles_record=CC(C)(C)OC(=O)NCCNC(=S)N[C@@H]1O[C@H](CO)[C@@H](O[C@@H]2O[C@H](CO)[C@H](O)[C@H](O)[C@H]2O)[C@H](O)[C@H]1O metric=pIC50 meas_value=3.54

###

molecular target: UniProt:P17931; assay: competitive ELISA, inhibition of galectin binding to immobilized asialofetuin
METRIC: IC50 (µM)
Enter your answer as a number in µM; do not include the unit.

compound="CC(=O)N[C@@H]1[C@@H](O)[C@H](O[C@@H]2O[C@H](CO)[C@H](O)[C@H](O[C@@H]3O[C@H](CO)[C@@H](O[C@@H]4O[C@H](CO)[C@H](O)[C@H](O)[C@H]4O)[C@H](O)[C@H]3NC(C)=O)[C@H]2O)[C@@H](CO)O[C@H]1NC(=S)NCCNC(=O)OC(C)(C)C [Compound 10]" units_of_measure=µM meas_value=12

Quick one: IC50 for CC(=O)N[C@@H]1[C@@H](O)[C@H](O[C@@H]2O[C@H](CO)[C@H](O)[C@H](O)[C@H]2O)[C@@H](CO)O[C@H]1NC(=S)NCCNC(=O)OC(C)(C)C [Compound 7, Galβ4GlcNAc-tBoc] ?
47

What IC50 value was documented for this compound, CC(=O)N[C@H]1[C@H](O[C@H]2[C@@H](O)[C@@H](CO)O[C@@H](O[C@H]3[C@H](O)[C@@H](O)[C@H](NC(=S)NCCNC(=O)OC(C)(C)C)O[C@@H]3CO)[C@@H]2O)O[C@H](CO)[C@@H](O[C@@H]2O[C@H](CO)[C@H](O)[C@H](O)[C@H]2O)[C@@H]1O [Compound 4] ?
7.3
